target: T1, human PD-L1 antigen (Beijing Sino Biological Inc, Catalog No. #10084-H08H-100) (human, UniProt Q9NZQ7 19-239); assay: BLI (ForteBIO Octet), antibody captured on sensor, human PD-L1 in solution
T1 construct: Bought antigen; also called the antigen
T1 sequence (Q9NZQ7 19-239 limits assumed): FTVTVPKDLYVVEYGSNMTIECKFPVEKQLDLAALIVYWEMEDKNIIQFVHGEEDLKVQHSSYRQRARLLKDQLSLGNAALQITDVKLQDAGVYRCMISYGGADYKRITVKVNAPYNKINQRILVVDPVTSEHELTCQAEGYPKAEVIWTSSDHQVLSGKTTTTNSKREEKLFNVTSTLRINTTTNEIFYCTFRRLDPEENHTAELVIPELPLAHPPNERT
endpointName: kon (M⁻¹ s⁻¹)
The answer is to be given in M⁻¹ s⁻¹; state only the numeric part.

{"binder": "Antibody II-HX-17 (antibody, human IgG4 S228P, kappa, V domains shown) VH: VQLVQSGAEVKKPGASVKVSCKASGYFFSSFVMHWVRQAPGQGLEWMGYINHFQDATKYNEKFKGRVTITSDKSASTAYMELSSLRSEDTAVYYCARSVGITDYWGQGTLVTVSS VL: TQSPSFLSASVGDRVTITCSASSTVYYMHWFQQKPGKSPKLWIYSYSNLASGVPARFSGSGSGTSYSLTISSLQPEDFATYYCQQRSSYHYTFGQGTKLEIKR", "kon, M⁻¹ s⁻¹": 2710}
{"binder": "Antibody II-HX-15 (antibody, human IgG4 S228P, kappa, V domains shown, also called antibody II sample; candidate antibody II sample) VH: VQLVQSGAEVKKPGASVKVSCKASGYTFTSYVMHWVRQAPGQGLEWMGYINPYNDGTKYNEKFKGRVTITSDKSASTAYMELSSLRSEDTAVYYCAWSGAIFEYWGQGTLVTVSS VL: TQSPSFLSASVGDRVTITCSASSSVSYMHWFQQKPGKSPKLWIYSTSNLASGVPARFSGSGSGTSYSLTISSLQPEDFATYYCQQRSSYPYTFGQGTKLEIKR", "kon, M⁻¹ s⁻¹": 3760}
{"binder": "Antibody II-HX-16 (antibody, human IgG4 S228P, kappa, V domains shown) VH: VQLVQSGAEVKKPGASVKVSCKASGYFYTSYVMHWVRQAPGQGLEWMGYINPFQDITKYNEKFKGRVTITSDKSASTAYMELSSLRSEDTAVYYCAWSAALSEYWGQGTLVTVSS VL: TQSPSFLSASVGDRVTITCSASSSVSYMHWFQQKPGKSPKLWIYSTSNLASGVPARFSGSGSGTSYSLTISSLQPEDFATYYCQNRYSYPYTFGQGTKLEIKR", "kon, M⁻¹ s⁻¹": 2500}

Below: the item to evaluate.
For Antibody II-HX-14 (antibody, human IgG4 S228P, kappa, V domains shown) VH: VQLVQSGAEVKKPGASVKVSCKASGYFFSSFVMHWVRQAPGQGLEWMGYINYYNDATKYNEKFKGRVTITSDKSASTAYMELSSLRSEDTAVYYCARSAALSEYWGQGTLVTVSS VL: TQSPSFLSASVGDRVTITCSASSTITYMHWFQQKPGKSPKLWIYYTSNLASGVPARFSGSGSGTSYSLTISSLQPEDFATYYCQNRTSFHYTFGQGTKLEIKR , write its kon.
2990
